- Assayed system: 5-hydroxytryptamine receptor 3A/3B (Mus musculus, UniProt P23979+Q9JHJ5)
- Sequence (P23979 whole entry): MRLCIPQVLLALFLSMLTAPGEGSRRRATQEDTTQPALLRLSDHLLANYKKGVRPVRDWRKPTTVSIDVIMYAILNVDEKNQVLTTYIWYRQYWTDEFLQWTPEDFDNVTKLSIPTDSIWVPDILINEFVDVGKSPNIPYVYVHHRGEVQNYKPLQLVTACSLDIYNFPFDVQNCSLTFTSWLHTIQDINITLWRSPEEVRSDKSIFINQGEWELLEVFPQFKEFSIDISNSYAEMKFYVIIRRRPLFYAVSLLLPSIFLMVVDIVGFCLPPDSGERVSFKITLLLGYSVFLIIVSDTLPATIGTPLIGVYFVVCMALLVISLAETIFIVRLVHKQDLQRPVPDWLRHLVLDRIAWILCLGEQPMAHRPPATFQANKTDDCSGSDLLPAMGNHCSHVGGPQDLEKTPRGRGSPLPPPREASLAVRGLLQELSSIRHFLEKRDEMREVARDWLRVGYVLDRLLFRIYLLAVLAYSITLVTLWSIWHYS
- Sequence (Q9JHJ5 whole entry): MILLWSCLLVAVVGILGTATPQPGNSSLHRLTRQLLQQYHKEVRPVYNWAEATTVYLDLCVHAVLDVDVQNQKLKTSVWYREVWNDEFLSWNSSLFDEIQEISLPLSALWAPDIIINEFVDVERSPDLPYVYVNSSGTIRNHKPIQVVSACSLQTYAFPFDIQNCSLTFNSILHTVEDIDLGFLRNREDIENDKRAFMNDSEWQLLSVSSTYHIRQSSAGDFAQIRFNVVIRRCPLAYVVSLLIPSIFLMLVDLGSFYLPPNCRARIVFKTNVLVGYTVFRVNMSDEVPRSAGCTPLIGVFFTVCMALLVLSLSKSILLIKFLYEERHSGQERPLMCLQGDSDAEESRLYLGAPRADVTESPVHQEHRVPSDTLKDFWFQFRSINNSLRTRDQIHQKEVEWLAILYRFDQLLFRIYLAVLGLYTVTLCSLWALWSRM
- Assay notes: Compound was evaluated for binding to 5-hydroxytryptamine 3 receptor in N1E cells using [3H]- -Tropisetron as radioligand
Test readout: Kd (nM)
Please give a number only; it is taken to be in nM.

In: Given the entry Cc1nccn1CC1CCc2c(c3ccccc3n2C)C1=O (stereo unspecified) , report its measured Kd.
Out: 20
